- experimental.system: human α7 NNR (Homo sapiens, UniProt P36544)
- Sequence (P36544 23-502): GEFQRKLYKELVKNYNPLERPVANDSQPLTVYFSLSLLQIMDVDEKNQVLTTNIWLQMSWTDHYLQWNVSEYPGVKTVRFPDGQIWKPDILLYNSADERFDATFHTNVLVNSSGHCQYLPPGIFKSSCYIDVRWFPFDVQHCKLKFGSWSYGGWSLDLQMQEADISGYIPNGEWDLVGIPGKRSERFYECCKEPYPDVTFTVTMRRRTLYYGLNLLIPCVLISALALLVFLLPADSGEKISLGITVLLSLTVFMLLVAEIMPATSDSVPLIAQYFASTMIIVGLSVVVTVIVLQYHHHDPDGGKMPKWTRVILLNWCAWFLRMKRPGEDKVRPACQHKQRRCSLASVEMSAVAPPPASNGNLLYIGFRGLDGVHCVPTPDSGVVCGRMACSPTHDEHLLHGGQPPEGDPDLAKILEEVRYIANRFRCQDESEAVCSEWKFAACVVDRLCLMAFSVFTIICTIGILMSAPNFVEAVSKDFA
- protocol.summary: Two-electrode voltage-clamp in Xenopus laevis oocytes: potentiation of ACh-evoked α7 currents
- experimental.conditions: FIG. 1A; 0.1 mM ACh; oocytes injected with human α7 NNR cRNA; read-out: EC50 value, potentiating 0.1 mM ACh-evoked α7 currents in oocytes
pEC50: −log10 of the molar value.

compound: Cc1cn(-c2ccc(C(F)(F)F)cc2)/c(=N/C(=O)N2CCCC2)s1 [Example 18]
pEC50: 5.40

---

- experimental.system: α7 NNRs (Homo sapiens, UniProt P36544)
- Construct: using cells natively expressing α7 NNRs
- Sequence (P36544 23-502): as above
- protocol.summary: High-throughput calcium flux (FLIPR) assay using IMR-32 cells expressing endogenous α7 NNRs
- experimental.conditions: FIG. 1B; IMR-32 cells; agonist 4-(5-phenyl-[1,3,4]oxadiazol-2-yl)-1,4-diaza-bicyclo[3.2.2]nonane at 10 μM; read-out: EC50 value, calcium fluorescence response

compound: Cc1cn(-c2ccc(C(F)(F)F)cc2)/c(=N/C(=O)N2CCCC2)s1
experimental.system: α7 NNRs (Homo sapiens, UniProt P36544)
result.units: µM
EC50: 3.4
